assayDetails: Solubility of the compound at pH 7.4
Type: physicochemical
runParameters: buffer
I'd be grateful if you could share measured solubility for these entries.
Record the value in µg/mL, omitting the unit from your answer.

Measured solubility, Cc1c(Cl)cccc1Oc1cccn2c(C34CCC(O)(CC3)CC4)nnc12 : 11

Measured solubility, Cc1c(Cl)cccc1Oc1cccn2c(C34CCC(CC3)C4)nnc12 : 1

Measured solubility, Cc1c(Cl)cccc1Oc1cccn2c(C34CCC(F)(CC3)CC4)nnc12 : 1

Hello, the source for this data is ChEMBL document CHEMBL1800042, in case you need it.
